Each recorded value in this set is attributed to the supplement of paper PMC10065799.

- System: c-Abl (mouse);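 further: 11-residue human phosphosite peptides and single-mutation variants displayed on the E. coli surface, counted by deep sequencing, each peptide's frequency after selection divided by its frequency in the unselected input library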;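 further: frequency after pTyr selection over input frequency; kinase dosed for 20-30% of maximal phosphorylation in three min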
- assay name: phosphorylation enrichment, bacterial display (enrichment ratio); higher = better substrate or ligand; peptides without Tyr show the background
recorded endpoint: phosphorylation enrichment
Just the number.

Sample records with phosphorylation enrichment:
primary sequence	phosphorylation enrichment
ERNARYRTPKI [PTK2B_Y699]	0.527
TVLEPYADPFF [ZC3H18_Y367_YF]	0.565
KEAALYPHLLP [SQSTM1_Y383_P387L]	0.549
LLKAGYQGVLR [TTPA_Y100_H101Q]	0.442
RALCHYFKLNI [ETV6_Y401_R399C_YF]	1.09

## Input Please look up its phosphorylation enrichment: REHTVYGEPRK [MAGEA4_Y240]
## Output 1.03

## Input I am curious: what phosphorylation enrichment value has been reported for IEELTYVIKQD [STX5_Y137_I138V] ?
## Output 0.705

## Input Item under review: EARRVYGDIIY [ALDH5A1_Y175_H180Y] . Reported phosphorylation enrichment?
## Output 0.597

## Input For the sequence shown here, PSELFYSKISP [SMG1_Y2254_G2258S_YF] , give the reported phosphorylation enrichment.
## Output 3.5

## Input Would you mind telling me what phosphorylation enrichment value was observed for RGEEPYTKKAL [TTC21B_Y160_K157E] ?
## Output 0.487

## Input What value of phosphorylation enrichment has been reported for the following sequence? PVFQVYPLLNC [GATA1_Y78]
## Output 1.13

## Input Using the record for TQTPPYVKKHP [LARP1B_Y457] , report its phosphorylation enrichment.
## Output 0.514

## Input Entry SEASYYKSLNL [NGEF_Y289] : reported phosphorylation enrichment = ?
## Output 0.615

## Input Please report the recorded phosphorylation enrichment for FPLELYERVRM [PRKCG_Y312_YF] .
## Output 0.804
